biological target: hMC4-R (HEK-293 cells) (Homo sapiens, UniProt P32245); construct: expressed in transfected cells; host or cells: HEK-293; assay: cAMP assay for agonist/antagonist status and functional antagonism, MC4-R; type: cell-based; conditions: functional antagonism, Schild's analysis vs NDP-α-MSH; read-out: pA2 value as to MC4-R (converted)
Sequence (P32245 whole entry): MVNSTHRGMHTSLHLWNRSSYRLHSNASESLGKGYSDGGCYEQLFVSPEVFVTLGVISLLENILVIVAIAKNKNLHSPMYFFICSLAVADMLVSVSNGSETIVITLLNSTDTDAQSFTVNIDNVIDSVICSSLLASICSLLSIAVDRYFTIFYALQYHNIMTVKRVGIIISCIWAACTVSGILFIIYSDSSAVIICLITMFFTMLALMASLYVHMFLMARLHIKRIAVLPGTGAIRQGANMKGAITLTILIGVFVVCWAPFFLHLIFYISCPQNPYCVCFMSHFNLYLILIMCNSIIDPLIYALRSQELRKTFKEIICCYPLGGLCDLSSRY
Positions of bridges follow the written chain, without caps; N, C: chain ends. Non-standard residues stand in square brackets, D forms with d. Residues, ends and D or L forms follow the SMILES beside them. 2Nal = N[C@@H](Cc1ccc2ccccc2c1)C(=O)O; d2Nal = N[C@H](Cc1ccc2ccccc2c1)C(=O)O
reported endpoint: Kb (nM)
Enter your answer as a number in nM; do not include the unit.

Task item: Report Kb for CNC(=O)[C@@H]1CCCCNC(=O)C[C@H](NC(C)=O)C(=O)N[C@@H](Cc2c[nH]c3ccccc23)C(=O)N[C@H](Cc2ccc3ccccc3c2)C(=O)N[C@@H](CCCNC(=N)N)C(=O)N[C@@H](Cc2ccc3ccccc3c2)C(=O)N1 [Example 19] (Ac-DW[d2Nal]R[2Nal]K-NHMe; lactam 1-6) please.
Reply: 1.26

Task item: Next: CC(=O)N[C@H]1CC(=O)NCCCC[C@@H](C(=O)N(C)C)NC(=O)[C@H](Cc2ccc3ccccc3c2)NC(=O)[C@H](CCCNC(=N)N)NC(=O)[C@@H](Cc2ccc3ccccc3c2)NC(=O)[C@H](Cc2c[nH]c3ccccc23)NC1=O [Example 18] (Ac-DW[d2Nal]R[2Nal]K-NMe2; lactam 1-6)
Reply: 2.04

Task item: Next: CC(=O)N[C@H]1CC(=O)NCCCC[C@@H](C(=O)O)NC(=O)[C@H](Cc2ccc3ccccc3c2)NC(=O)[C@H](CCCNC(=N)N)NC(=O)[C@@H](Cc2ccc3ccccc3c2)NC(=O)[C@H](Cc2c[nH]c3ccccc23)NC1=O [Example 16] (Ac-DW[d2Nal]R[2Nal]K-OH; lactam 1-6)
Reply: 3.55

---

target: hMC5-R (Homo sapiens, UniProt P33032); construct: expressed in transfected cells; host or cells: HEK-293; experiment: Competitive inhibition binding assay using [I125]-NDP-α-MSH, hMC5-R; details: HEK-293 membranes, read-out: Ki MC5-R
Sequence (P33032 whole entry): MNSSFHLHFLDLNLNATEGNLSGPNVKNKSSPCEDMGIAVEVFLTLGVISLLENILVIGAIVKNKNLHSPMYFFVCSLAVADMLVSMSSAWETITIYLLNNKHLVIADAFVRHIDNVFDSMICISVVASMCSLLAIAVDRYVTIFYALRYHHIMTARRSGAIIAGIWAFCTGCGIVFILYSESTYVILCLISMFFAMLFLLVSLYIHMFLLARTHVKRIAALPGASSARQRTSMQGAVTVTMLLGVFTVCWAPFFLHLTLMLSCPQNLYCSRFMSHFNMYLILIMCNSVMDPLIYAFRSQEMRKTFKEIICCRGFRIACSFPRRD
Positions of bridges follow the written chain, without caps; N, C: chain ends. Non-standard residues stand in square brackets, D forms with d. Residues, ends and D or L forms follow the SMILES beside them. 2Nal = N[C@@H](Cc1ccc2ccccc2c1)C(=O)O; d2Nal = N[C@H](Cc1ccc2ccccc2c1)C(=O)O; Nle = CCCC[C@H](N)C(=O)O
reported endpoint: Ki (nM)
Enter your answer as a number in nM; do not include the unit.

Task item: Report Ki for CC(=O)N[C@H]1CC(=O)NCCCC[C@@H](C(=O)O)NC(=O)[C@H](Cc2ccc3ccccc3c2)NC(=O)[C@H](CCCNC(=N)N)NC(=O)[C@@H](Cc2ccc3ccccc3c2)NC(=O)[C@H](Cc2c[nH]cn2)NC1=O [Example 15] (Ac-DH[d2Nal]R[2Nal]K-OH; lactam 1-6) please.
Reply: 89

Task item: Next: CCCC[C@H](NC(C)=O)C(=O)N[C@H]1CC(=O)NCCCC[C@@H](C(=O)O)NC(=O)[C@H](Cc2ccc3ccccc3c2)NC(=O)[C@H](CCCNC(=N)N)NC(=O)[C@@H](Cc2ccc3ccccc3c2)NC(=O)[C@H](Cc2c[nH]cn2)NC1=O [Example 12] (Ac-[Nle]DH[d2Nal]R[2Nal]K-OH; lactam 2-7)
Reply: 0.2

Task item: Next: CC(=O)N[C@H]1CC(=O)NCCCC[C@@H](C(=O)O)NC(=O)[C@H](Cc2ccc3ccccc3c2)NC(=O)[C@H](CCCNC(=N)N)NC(=O)[C@@H](Cc2ccc3ccccc3c2)NC(=O)[C@H](Cc2c[nH]c3ccccc23)NC1=O [Example 16] (Ac-DW[d2Nal]R[2Nal]K-OH; lactam 1-6)
Reply: 17

Task item: Next: CC(=O)N[C@H]1CC(=O)NCCCC[C@@H](C(=O)N(C)C)NC(=O)[C@H](Cc2ccc3ccccc3c2)NC(=O)[C@H](CCCNC(=N)N)NC(=O)[C@@H](Cc2ccc3ccccc3c2)NC(=O)[C@H](Cc2c[nH]c3ccccc23)NC1=O [Example 18] (Ac-DW[d2Nal]R[2Nal]K-NMe2; lactam 1-6)
Reply: 4

Task item: Next: CCNC(=O)[C@@H]1CCCCNC(=O)C[C@H](NC(C)=O)C(=O)N[C@@H](Cc2c[nH]c3ccccc23)C(=O)N[C@H](Cc2ccc3ccccc3c2)C(=O)N[C@@H](CCCNC(=N)N)C(=O)N[C@@H](Cc2ccc3ccccc3c2)C(=O)N1 [Example 17] (Ac-DW[d2Nal]R[2Nal]K-NHEt; lactam 1-6)
Reply: 3
